Test system: S. aureus MW2 (NRS123)
Assay: microbe, parasite or virus in culture
Format: cell-based, Staphylococcus aureus
Conditions: Staphylococcus aureus, NRS123, passage 30; selection group DAP + CLI
Assay Readout: MIC (µg/mL)
Write down the numeric answer in µg/mL and omit the unit.

### Prompt // MIC lookup, key: CCC[C@@H]1C[C@@H](C(=O)N[C@@H]([C@H]2O[C@H](SC)[C@H](O)[C@@H](O)[C@H]2O)[C@H](C)Cl)N(C)C1 [CLI, clindamycin]
### Response 0.0625

### Prompt // MIC lookup, key: CC(=O)NC[C@H]1CN(c2ccc(N3CCOCC3)c(F)c2)C(=O)O1 [LZD, linezolid]
### Response 2

### Prompt // MIC lookup, key: Cn1nnc(-c2ccc(-c3ccc(N4C[C@H](CO)OC4=O)cc3F)cn2)n1 [TR-700, Tedizolid]
### Response 0.25

### Prompt // MIC lookup, key: CN[C@H](CC(C)C)C(=O)N[C@H]1C(=O)N[C@@H](CC(N)=O)C(=O)N[C@H]2C(=O)N[C@H]3C(=O)N[C@H](C(=O)N[C@H](C(=O)O)c4cc(O)cc(O)c4-c4cc3ccc4O)[C@H](O)c3ccc(c(Cl)c3)Oc3cc2cc(c3O[C@@H]2O[C@H](CO)[C@@H](O)[C@H](O)[C@H]2O[C@H]2C[C@](C)(N)[C@H](O)[C@H](C)O2)Oc2ccc(cc2Cl)[C@H]1O [VAN, vancomycin]
### Response 8

### Prompt // MIC lookup, key: CN(C)[C@@H]1C(O)=C(C(N)=O)C(=O)[C@@]2(O)C(O)=C3C(=O)c4c(O)cccc4[C@@](C)(O)[C@H]3C[C@@H]12 [TET, tetracycline]
### Response 0.25

### Prompt // MIC lookup, key: C=C[C@]1(C)C[C@@H](OC(=O)CSCCN(CC)CC)[C@]2(C)[C@H](C)CC[C@]3(CCC(=O)[C@H]32)[C@@H](C)[C@@H]1O [TIA, tiamulin]
### Response 0.25

---

System: S. aureus MW2 (NRS123)
Assay: microbe, parasite or virus in culture
Assay type: cell-based, Staphylococcus aureus
Settings: Staphylococcus aureus, NRS123, passage 25; selection group DAP + TIA
What MIC was measured for each of the following?
Write down the numeric answer in µg/mL and omit the unit.

### Prompt // MIC lookup, key: C=C[C@]1(C)C[C@@H](OC(=O)CSCCN(CC)CC)[C@]2(C)[C@H](C)CC[C@]3(CCC(=O)[C@H]32)[C@@H](C)[C@@H]1O
### Response 0.5

### Prompt // MIC lookup, key: Cn1nnc(-c2ccc(-c3ccc(N4C[C@H](CO)OC4=O)cc3F)cn2)n1
### Response 0.5

### Prompt // MIC lookup, key: CN(C)[C@@H]1C(O)=C(C(N)=O)C(=O)[C@@]2(O)C(O)=C3C(=O)c4c(O)cccc4[C@@](C)(O)[C@H]3C[C@@H]12
### Response 0.25

### Prompt // MIC lookup, key: CCC[C@@H]1C[C@@H](C(=O)N[C@@H]([C@H]2O[C@H](SC)[C@H](O)[C@@H](O)[C@H]2O)[C@H](C)Cl)N(C)C1
### Response 0.0625

### Prompt // MIC lookup, key: CC(=O)NC[C@H]1CN(c2ccc(N3CCOCC3)c(F)c2)C(=O)O1
### Response 2

### Prompt // MIC lookup, key: CN[C@H](CC(C)C)C(=O)N[C@H]1C(=O)N[C@@H](CC(N)=O)C(=O)N[C@H]2C(=O)N[C@H]3C(=O)N[C@H](C(=O)N[C@H](C(=O)O)c4cc(O)cc(O)c4-c4cc3ccc4O)[C@H](O)c3ccc(c(Cl)c3)Oc3cc2cc(c3O[C@@H]2O[C@H](CO)[C@@H](O)[C@H](O)[C@H]2O[C@H]2C[C@](C)(N)[C@H](O)[C@H](C)O2)Oc2ccc(cc2Cl)[C@H]1O
### Response 2

---

System: S. aureus MW2 (NRS123)
Assay: microbe, parasite or virus in culture
Format: cell-based, Staphylococcus aureus
Settings: Staphylococcus aureus, NRS123, passage 10; selection group DAP + TR-705
Assay Readout: MIC (µg/mL)
Write down the numeric answer in µg/mL and omit the unit.

### Prompt // MIC lookup, key: C=C[C@]1(C)C[C@@H](OC(=O)CSCCN(CC)CC)[C@]2(C)[C@H](C)CC[C@]3(CCC(=O)[C@H]32)[C@@H](C)[C@@H]1O
### Response 0.5

### Prompt // MIC lookup, key: CN[C@H](CC(C)C)C(=O)N[C@H]1C(=O)N[C@@H](CC(N)=O)C(=O)N[C@H]2C(=O)N[C@H]3C(=O)N[C@H](C(=O)N[C@H](C(=O)O)c4cc(O)cc(O)c4-c4cc3ccc4O)[C@H](O)c3ccc(c(Cl)c3)Oc3cc2cc(c3O[C@@H]2O[C@H](CO)[C@@H](O)[C@H](O)[C@H]2O[C@H]2C[C@](C)(N)[C@H](O)[C@H](C)O2)Oc2ccc(cc2Cl)[C@H]1O
### Response 2

### Prompt // MIC lookup, key: Cn1nnc(-c2ccc(-c3ccc(N4C[C@H](CO)OC4=O)cc3F)cn2)n1
### Response 0.5

### Prompt // MIC lookup, key: CC(=O)NC[C@H]1CN(c2ccc(N3CCOCC3)c(F)c2)C(=O)O1
### Response 2

### Prompt // MIC lookup, key: CN(C)[C@@H]1C(O)=C(C(N)=O)C(=O)[C@@]2(O)C(O)=C3C(=O)c4c(O)cccc4[C@@](C)(O)[C@H]3C[C@@H]12
### Response 0.125

### Prompt // MIC lookup, key: CCC[C@@H]1C[C@@H](C(=O)N[C@@H]([C@H]2O[C@H](SC)[C@H](O)[C@@H](O)[C@H]2O)[C@H](C)Cl)N(C)C1
### Response 0.125

---

Tested on: S. aureus MW2 (NRS123)
Assay: microbe, parasite or virus in culture
Format: cell-based, Staphylococcus aureus
Settings: Staphylococcus aureus, NRS123, read-out: DAP MIC by the end of the experiment (selection of DAP^ns strains), MW2; passaged with DAP alone or with co-selecting agent at ¼ MIC; CLSI breakpoint
What MIC was measured for each of the following?

### Prompt // MIC lookup, key: C=C[C@]1(C)C[C@@H](OC(=O)CSCCN(CC)CC)[C@]2(C)[C@H](C)CC[C@]3(CCC(=O)[C@H]32)[C@@H](C)[C@@H]1O
### Response > 1 µg/mL

### Prompt // MIC lookup, key: CN(C)[C@@H]1C(O)=C(C(N)=O)C(=O)[C@@]2(O)C(O)=C3C(=O)c4c(O)cccc4[C@@](C)(O)[C@H]3C[C@@H]12
### Response > 1 µg/mL

### Prompt // MIC lookup, key: CC(=O)NC[C@H]1CN(c2ccc(N3CCOCC3)c(F)c2)C(=O)O1
### Response > 1 µg/mL

### Prompt // MIC lookup, key: CCC[C@@H]1C[C@@H](C(=O)N[C@@H]([C@H]2O[C@H](SC)[C@H](O)[C@@H](O)[C@H]2O)[C@H](C)Cl)N(C)C1
### Response > 1 µg/mL

### Prompt // MIC lookup, key: CN[C@H](CC(C)C)C(=O)N[C@H]1C(=O)N[C@@H](CC(N)=O)C(=O)N[C@H]2C(=O)N[C@H]3C(=O)N[C@H](C(=O)N[C@H](C(=O)O)c4cc(O)cc(O)c4-c4cc3ccc4O)[C@H](O)c3ccc(c(Cl)c3)Oc3cc2cc(c3O[C@@H]2O[C@H](CO)[C@@H](O)[C@H](O)[C@H]2O[C@H]2C[C@](C)(N)[C@H](O)[C@H](C)O2)Oc2ccc(cc2Cl)[C@H]1O
### Response > 1 µg/mL

### Prompt // MIC lookup, key: Cn1nnc(-c2ccc(-c3ccc(N4C[C@H](CO)OC4=O)cc3F)cn2)n1
### Response > 1 µg/mL

---

System: S. aureus MW2 (NRS123)
Test: microbe, parasite or virus in culture
Format: cell-based, Staphylococcus aureus
Conditions: Staphylococcus aureus, NRS123, passage 20; selection group DAP + TIA
Exam item: assign label 1 to entries whose MIC is below 0.5 µg/mL and label 0 to entries at or above 0.5 µg/mL. Note that a value of exactly 0.5 µg/mL receives label 0.

### Prompt Threshold test, MIC < 0.5 µg/mL: CCC[C@@H]1C[C@@H](C(=O)N[C@@H]([C@H]2O[C@H](SC)[C@H](O)[C@@H](O)[C@H]2O)[C@H](C)Cl)N(C)C1
### Response label 1

### Prompt Threshold test, MIC < 0.5 µg/mL: CN[C@H](CC(C)C)C(=O)N[C@H]1C(=O)N[C@@H](CC(N)=O)C(=O)N[C@H]2C(=O)N[C@H]3C(=O)N[C@H](C(=O)N[C@H](C(=O)O)c4cc(O)cc(O)c4-c4cc3ccc4O)[C@H](O)c3ccc(c(Cl)c3)Oc3cc2cc(c3O[C@@H]2O[C@H](CO)[C@@H](O)[C@H](O)[C@H]2O[C@H]2C[C@](C)(N)[C@H](O)[C@H](C)O2)Oc2ccc(cc2Cl)[C@H]1O
### Response label 0

### Prompt Threshold test, MIC < 0.5 µg/mL: CC(=O)NC[C@H]1CN(c2ccc(N3CCOCC3)c(F)c2)C(=O)O1
### Response label 0

### Prompt Threshold test, MIC < 0.5 µg/mL: CN(C)[C@@H]1C(O)=C(C(N)=O)C(=O)[C@@]2(O)C(O)=C3C(=O)c4c(O)cccc4[C@@](C)(O)[C@H]3C[C@@H]12
### Response label 1
